Catalogue of self-cleavage values
B1: Twister Ribozyme (parent)
chain: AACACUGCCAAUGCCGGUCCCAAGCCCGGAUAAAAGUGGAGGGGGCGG

Variants of: B1
Assay: self-cleavage, relative activity (ratio to wild type); higher = more cleavage; co-transcriptional
REPORTED METRIC: self-cleavage

# MUTATION NAME, READOUT VALUE
rows = [
    ("C5A C25U", 0.236),
    ("C25A G43A", 0.0661),
    ("C19G G36C", 0.118),
    ("A10U G29A", 1.08),
    ("C21A G44C", 0.0966),
    ("A2C G16U", 0.0604),
    ("C3G U6A", 0.13),
    ("A11G G45C", 0.343),
    ("C21G", 0.0865),
    ("U18G C21A", 0.133),
    ("A32C A33G", 0.945),
    ("U6C G41C", 0.13),
    ("A22U A30C", 0.614),
    ("G28C G36A", 0.292),
    ("G16A A32U", 0.919),
    ("C19U G24A", 0.0904),
    ("A10G C25A", 0.139),
    ("U6G A11C", 0.173),
    ("A22C A32C", 1.08),
    ("C9A U12G", 0.417),
    ("U6G G16U", 0.296),
    ("G17U A32G", 0.345),
    ("G29U A40C", 0.208),
    ("C15G A34G", 0.103),
    ("C15G G29C", 0.0981),
    ("U6C A34G", 0.788),
    ("U12G A30C", 0.969),
    ("A2U", 0.738),
    ("C8U G39A", 0.161),
    ("C9A A11U", 0.767),
    ("C20U G29U", 0.921),
    ("A1G G36C", 0.227),
]
